# Tested on: NCI-H226 lung
# Measurement Description: NCI tumour cell line growth inhibition, 48 h
Can you tell me log10 of TGI for the items I'm about to list?
Short version: log10 scale, TGI, µM.

Report log10 of TGI for `O=C(c1c(F)c(F)c(F)c(F)c1F)c1c(F)c(F)c(F)c(F)c1F` please.
0.95

Cool, now `COc1ccc(Nc2nc(NCCNc3ccnc4cc(Cl)ccc34)nc(N3CCOCC3)n2)cc1`
1.26

Cool, now `CN(C)c1ccc(/C=C/C=c2/c3ccccc3n3c2cc(-c2ccccc2)[n+]3C)cc1`
0.26

Cool, now `CCCn1cc2c(=O)[nH]c(SC)nc2n1`
1.95

Cool, now `COC[C@H](NC(=O)c1cnc(C)s1)C(=O)N[C@@H](COC)C(=O)N[C@@H](Cc1ccccc1)C(=O)[C@@]1(C)CO1`
1.67

Cool, now `C=C(C)[C@@H]1CC[C@]2(CO)CC[C@]3(C)[C@H](CC[C@@H]4[C@@]5(C)CCCNC(C)(C)[C@@H]5CC[C@]43C)[C@@H]12`
0.61

Every entry's value here was drawn from PubChem BioAssay (NCI).
